Task for the reader: assign each of the following compounds its reported DPPH free-radical scavenging.
Test: DPPH assay (free-radical scavenging)
Assay type: biochemical
Details: amount of antioxidant (in mg) needed to inhibit 1 mmol of DPPH
Your answer should be a plain number; it is taken to be in mg.

Exam item: # DPPH free-radical scavenging lookup, item O=C1O[C@H]([C@@H](O)CO)C(O)=C1O [Vitamin C, ascorbic acid, reference compound]
Marked response: 102

Exam item: # DPPH free-radical scavenging lookup, item CCCCCCCCCCCCCCCC(=O)OC[C@H](O)[C@H]1OC(=O)C(O)=C1O [Ascorbyl palmitate, 6-ascorbyl palmitate, reference compound]
Marked response: 211

Exam item: # DPPH free-radical scavenging lookup, item COc1ccc(C(=O)OC[C@H](O)[C@H]2OC(=O)C(O)=C2O)cc1 [Substance 5, L-ascorbyl 6-O-(4-methoxy)benzoate]
Marked response: 161

Exam item: # DPPH free-radical scavenging lookup, item O=C1O[C@H]([C@@H](O)COC(=O)c2cccc(O)c2)C(O)=C1O [Substance 6, L-ascorbyl 6-O-(3-hydroxy)benzoate]
Marked response: 193

Attribution: patent US20060039937A1
